Target: SMARCA2 (Homo sapiens, UniProt P51531)
Sequence (P51531 whole entry): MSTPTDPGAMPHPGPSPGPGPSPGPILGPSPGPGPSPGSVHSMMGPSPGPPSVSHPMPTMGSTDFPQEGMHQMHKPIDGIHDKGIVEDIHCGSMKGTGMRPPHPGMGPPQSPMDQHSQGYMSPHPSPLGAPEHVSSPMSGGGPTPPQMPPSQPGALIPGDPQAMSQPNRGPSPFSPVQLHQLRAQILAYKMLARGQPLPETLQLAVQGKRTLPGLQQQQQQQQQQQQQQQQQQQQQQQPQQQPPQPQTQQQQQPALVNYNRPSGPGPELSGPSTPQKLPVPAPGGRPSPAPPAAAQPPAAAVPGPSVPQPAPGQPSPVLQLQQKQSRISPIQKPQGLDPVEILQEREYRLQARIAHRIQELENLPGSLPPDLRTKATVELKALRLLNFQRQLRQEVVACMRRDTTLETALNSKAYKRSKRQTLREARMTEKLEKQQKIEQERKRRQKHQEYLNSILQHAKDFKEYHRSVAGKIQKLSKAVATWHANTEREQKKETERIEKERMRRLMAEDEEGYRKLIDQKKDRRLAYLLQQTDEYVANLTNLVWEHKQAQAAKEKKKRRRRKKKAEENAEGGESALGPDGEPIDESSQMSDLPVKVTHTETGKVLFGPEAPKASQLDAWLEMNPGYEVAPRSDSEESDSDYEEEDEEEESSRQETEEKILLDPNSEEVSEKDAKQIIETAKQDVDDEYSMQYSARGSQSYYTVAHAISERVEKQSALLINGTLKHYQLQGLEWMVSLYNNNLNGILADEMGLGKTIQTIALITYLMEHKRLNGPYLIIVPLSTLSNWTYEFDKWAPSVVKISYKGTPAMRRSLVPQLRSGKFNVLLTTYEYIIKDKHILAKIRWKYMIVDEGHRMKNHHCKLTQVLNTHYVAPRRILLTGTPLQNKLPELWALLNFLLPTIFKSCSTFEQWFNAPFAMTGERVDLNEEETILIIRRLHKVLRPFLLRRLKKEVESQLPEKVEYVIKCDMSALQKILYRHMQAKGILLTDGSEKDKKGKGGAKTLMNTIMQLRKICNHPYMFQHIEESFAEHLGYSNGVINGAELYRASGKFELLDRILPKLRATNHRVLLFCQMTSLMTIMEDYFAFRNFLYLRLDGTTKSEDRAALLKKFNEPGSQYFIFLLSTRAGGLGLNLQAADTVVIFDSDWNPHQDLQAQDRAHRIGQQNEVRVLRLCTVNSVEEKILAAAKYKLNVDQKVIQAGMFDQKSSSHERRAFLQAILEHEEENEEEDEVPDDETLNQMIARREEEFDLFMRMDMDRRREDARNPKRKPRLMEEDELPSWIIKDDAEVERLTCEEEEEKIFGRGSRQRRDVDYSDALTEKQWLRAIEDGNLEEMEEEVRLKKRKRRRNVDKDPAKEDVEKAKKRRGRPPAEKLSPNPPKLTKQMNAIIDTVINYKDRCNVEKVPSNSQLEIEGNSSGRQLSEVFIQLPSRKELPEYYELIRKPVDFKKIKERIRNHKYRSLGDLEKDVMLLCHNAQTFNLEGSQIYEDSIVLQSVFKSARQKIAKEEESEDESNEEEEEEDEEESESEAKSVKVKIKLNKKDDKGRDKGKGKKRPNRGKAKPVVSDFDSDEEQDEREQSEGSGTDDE
Assay: SMARCA2 Western blot degradation in MV4-11 cells
Assay type: cell-based
Parameters: SMARCA2/SMARCA4 protein degradation selectivity in MV4-11 cells; endogenous in cells; host or cells: MV4-11
Settings: MV4-11, MV4-11 cells, 24 h; read-out: SMARCA2 MSD MV411 degradation 24 h: average Dmax %
A collection of molecules and their measured Dmax

May I ask what Dmax has been recorded for C#Cc1ccc(CNC(=O)[C@@H]2C[C@@H](O)CN2C(=O)[C@@H](NC(=O)N2CC3(CC(CCN4CCC(c5cnc(N6CCc7[nH]c8nnc(-c9ccccc9O)cc8c7[C@H]6C)nc5)CC4)C3)C2)C(C)(C)C)cc1 ?
> 90%

May I ask what Dmax has been recorded for C#Cc1ccc(CNC(=O)[C@@H]2C[C@@H](O)CN2C(=O)[C@@H](NC(=O)C2CCC3(CC2)CC(N2CCC(N4CCC(C(=O)N5CCN6c7cc(-c8ccccc8O)nnc7NC[C@H]6C5)CC4)CC2)C3)C(C)(C)C)cc1 (stereo partly shown) ?
70 to 90%

May I ask what Dmax has been recorded for C#Cc1ccc(CNC(=O)[C@@H]2C[C@@H](O)CN2C(=O)[C@@H](NC(=O)N2CCC[C@@H](CN3CCC(N4CCC(N5CCN6c7cc(-c8ccccc8O)nnc7NC[C@H]6C5)CC4)CC3)C2)C(C)(C)C)cc1 (single isomer, unassigned) ?
< 50%

May I ask what Dmax has been recorded for C#Cc1ccc(CNC(=O)[C@@H]2C[C@@H](O)CN2C(=O)[C@@H](N(CCN(C)C)C(=O)N2CC3(CC(N4CCC(c5cnc(N6CCc7[nH]c8nnc(-c9ccccc9O)cc8c7[C@H]6C)nc5)CC4)C3)C2)C(C)(C)C)cc1 ?
< 50%

May I ask what Dmax has been recorded for C#Cc1ccc(CNC(=O)[C@@H]2C[C@@H](O)CN2C(=O)[C@@H](NC(=O)[C@H]2CCC3(CC2)C[C@H](N2CCC(c4ccc(N5CCN6c7cc(-c8ccccc8O)nnc7NC[C@H]6C5)nc4)CC2)C3)C(C)(C)C)cc1 (single isomer, unassigned) ?
70 to 90%

May I ask what Dmax has been recorded for C#Cc1cc(O)c(CNC(=O)[C@@H]2C[C@@H](O)CN2C(=O)[C@@H](NC(=O)N2CC3(CC(N4CCC(c5cnc(N6CCc7[nH]c8nnc(-c9ccccc9O)cc8c7[C@H]6C)nc5)CC4)C3)C2)C(C)(C)C)c(Cl)c1 ?
< 50%

May I ask what Dmax has been recorded for C#Cc1ccc(CNC(=O)[C@@H]2C[C@@H](O)CN2C(=O)[C@@H](NC(=O)[C@H]2CCC3(CC2)C[C@H](N2CCN(c4cnc(N5CCN6c7cc(-c8ccccc8O)nnc7NC[C@H]6C5)nc4)CC2)C3)C(C)(C)C)cc1 (single isomer, unassigned) ?
70 to 90%

May I ask what Dmax has been recorded for Cc1ncsc1-c1ccc(CNC(=O)[C@@H]2C[C@@H](O)CN2C(=O)C(c2cc(N3CC4(CC(N5CCC(c6cnc(N7CCc8[nH]c9nnc(-c%10ccccc%10O)cc9c8[C@@H]7C)nc6)CC5)C4)C3)no2)C(C)C)cc1 (stereo partly shown) ?
> 90%

* * *

Biological target: UniProt:P51531
Experiment: MSD SMARCA2 degradation in A549 cell line
Format: cell-based
Details: A549 cells, 24 h, read-out: SMARCA2 MSD A549 degradation 24 h: Average external-Abs DC50
REPORTED_ENDPOINT: DC50

# MOLECULE, DC50
records = [
    ("C#Cc1ccc([C@H](C)NC(=O)[C@@H]2C[C@@H](O)CN2C(=O)[C@@H](NC(=O)N2CC3(CC(N4CCN(c5cnc(N6CCc7[nH]c8nnc(-c9ccccc9O)cc8c7[C@H]6C)nc5)CC4)C3)C2)C(C)(C)CCO)cc1", "< 10 nM"),
]

May I ask what DC50 has been recorded for C#Cc1ccc(CNC(=O)[C@@H]2C[C@@H](O)CN2C(=O)[C@@H](NC(=O)[C@H]2CCC3(CC2)C[C@H](N2CCC(c4cnc(N5CCN6c7cc(-c8ccccc8O)nnc7NC[C@H]6C5)nc4)CC2)C3)C(C)(C)C)c(OCCCOC)c1 (single isomer, unassigned) [I-130] ?
< 10 nM

Recorded values, source patent US20250170248A1.
